Cited source: patent US8158372B2

# Test Target: hTAS2R14 (Homo sapiens, UniProt Q9NYV8)
# Sequence (Q9NYV8 whole entry): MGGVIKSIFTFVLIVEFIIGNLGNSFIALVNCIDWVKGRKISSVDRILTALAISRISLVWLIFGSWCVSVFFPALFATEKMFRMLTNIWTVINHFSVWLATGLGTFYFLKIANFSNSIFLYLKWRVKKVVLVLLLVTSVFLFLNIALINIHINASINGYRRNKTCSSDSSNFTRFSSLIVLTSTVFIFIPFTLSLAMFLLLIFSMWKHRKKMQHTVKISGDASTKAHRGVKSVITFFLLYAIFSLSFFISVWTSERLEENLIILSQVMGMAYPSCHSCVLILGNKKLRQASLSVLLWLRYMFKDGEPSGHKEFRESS
# Stated Conditions: increase of intracellular calcium (fluorescence) in hTAS2R14 transfected cells; traces only shown as drawings, Table 1 A
Experimental Endpoint: activation of hTAS2R14 (agonist)

C=C1C(=O)O[C@H]2[C@H]1CC/C(C)=C/CC[C@@]1(C)O[C@@H]21 [parthenolide] ... agonist
O=C(O)c1cccc2ccccc12 [1-naphthoic acid] ... agonist
CC1CCC2[C@@H]1C1CC(O)[C@H](C)C1CC[C@@]2(C)O (stereo partly shown) [pseudo-artabsine] ... agonist
O=Cc1cccc2cccc(C(=O)O)c12 [1,8-naphthaldehydic acid] ... agonist
C=C1C(=O)OC2C3O[C@]3(C)CC/C=C(\C)CC(O)[C@@H]12 (stereo partly drawn) [hydroxy-8α-parthenolide] ... agonist

Task: Consider the compound shown here: C=C1C(OC(C)=O)CC/C(C)=C/[C@H]2OC(=O)[C@@H](C)[C@@H]2CC1OC(C)=O (stereo partly shown) [herbolide D acetate] What is its recorded activation of hTAS2R14 (agonist)?
Result: agonist

Task: Please give the result for CC(=O)OC1C[C@H]2[C@H](C)C(=O)O[C@@H]2/C=C(\C)CC/C=C/1C (stereo partly shown) [herbolide A] too.
Result: agonist
